System: MV4-11
Assay: cells
Design: species or system AML cell lines (8); Secondary HTS, 10-point dose-response in triplicate, Cell Titer Glo viability, four-parameter fit EC50
Conditions: Homo sapiens; 72 h cell viability; read-out: MV4-11
pEC50: −log10 of the molar value.
experimental_readout: pEC50

Task: If you can, please state the reported pEC50 value of O=C(O)Cc1ccccc1 [SJ000784253, SODIUM PHENYLACETATE] .
Result: < 5.00

* * *

Please provide measured CMS %inh for the entries that follow.
Tested on: CMS
Set-up: species or system AML cell lines (8); Primary HTS, single concentration about 10 uM, Cell Titer Glo viability; log10 luminescence, per cent inhibition relative to cycloheximide control
Settings: 72 h, relative to cycloheximide control, log10 luminescence; inhibitor
Where a name gives a salt, the structure may show the parent alone. Square brackets hold non-standard residues; d marks the D form. Peptide text beside a SMILES is read from it. Nle = CCCC[C@H](N)C(=O)O
Return type: number; implicit unit %.

Task: If you can, please state the reported CMS %inh value of CCCC[C@@H](C=O)NC(=O)[C@H](CC(C)C)NC(=O)[C@H](CC(C)C)NC(C)=O [SJ000772397-1, MG 101 | ALLN] (Ac-Leu-Leu-[Nle]-aldehyde) .
Result: 98.27

Task: If you can, please state the reported CMS %inh value of `Cc1nn(C)c2cc(N(C)c3ccnc(Nc4cccc(S(N)(=O)=O)c4)n3)ccc12` .
Result: 12.43

Task: If you can, please state the reported CMS %inh value of CC(C)C[C@H](N)C(=O)N[C@H](C(=O)N[C@H](C(=O)N[C@@H](Cc1ccc(O)cc1)C(=O)N1CCC[C@H]1C(=O)N[C@@H](Cc1c[nH]c2ccccc12)C(=O)N[C@H](C(=O)O)[C@@H](C)O)C(C)C)C(C)C [SJ000556698-1, SPINORPHIN] (H-LVVYPWT-OH) .
Result: 4.762

Task: If you can, please state the reported CMS %inh value of `Cc1ccc(NC(=O)c2ccnc(N3CCCC3)c2)cc1-c1ccc(C(=O)NCC2CC2)cc1` .
Result: -0.7437

Task: If you can, please state the reported CMS %inh value of `C[C@]12CCC(=O)C=C1[C@@H]1C[C@@H]1[C@H]1[C@@H]3[C@@H]4C[C@@H]4[C@@]4(CCC(=O)O4)[C@@]3(C)CC[C@@H]12` .
Result: 0.9318

Task: If you can, please state the reported CMS %inh value of `Fc1ccc(-c2nc3n(c2-c2ccncc2)CCS3)cc1` .
Result: -0.311

Task: If you can, please state the reported CMS %inh value of `CS(=O)(=O)CCNCc1ccc(-c2ccc3ncnc(Nc4ccc(OCc5ccccc5)c(Cl)c4)c3c2)o1` .
Result: -1.14

Task: If you can, please state the reported CMS %inh value of `NCc1ccc(-c2nc(-c3ccc(Cl)c(O)c3)c(-c3ccncc3)[nH]2)cc1` .
Result: -0.03858

Task: If you can, please state the reported CMS %inh value of CCN(CC)CCOC(=O)c1ccc(N)cc1Cl [SJ000565166-1, CHLOROPROCAINE HYDROCHLORIDE] .
Result: -2.449

Task: If you can, please state the reported CMS %inh value of `Clc1ccc(-c2nn3ncccc3c2-c2ccnc(Nc3ccccc3)n2)cc1` .
Result: 3.744

Task: If you can, please state the reported CMS %inh value of `CC(C)[C@H](NS(=O)(=O)c1ccc(-c2ccc(Br)cc2)cc1)C(=O)O` .
Result: -2.252

Task: If you can, please state the reported CMS %inh value of `CCc1c(C)nc2sc3c(N)ncnc3c2c1C` .
Result: 6.427

Task: If you can, please state the reported CMS %inh value of CC(=O)O[C@]1(C(C)=O)CC[C@H]2[C@@H]3C=C(Cl)C4=CC(=O)[C@@H]5C[C@@H]5[C@]4(C)[C@H]3CC[C@@]21C [SJ000286483-6, CYPROTERONE ACETATE] .
Result: 2.38

Task: If you can, please state the reported CMS %inh value of `Cn1cc(C2=C(c3cn(CCCN=C(N)N)c4ccccc34)C(=O)NC2=O)c2ccccc21` .
Result: -3.925

Task: If you can, please state the reported CMS %inh value of `COc1ccc(-c2ccc3c(N4CCOC[C@@H]4C)nc(N4CCOC[C@@H]4C)nc3n2)cc1CO` .
Result: 58.27

Task: If you can, please state the reported CMS %inh value of `O=C(O)c1cc(-c2ccc(F)cc2F)ccc1O` .
Result: 0.6702

Task: If you can, please state the reported CMS %inh value of `Cn1cc(C2=C(c3cn(CCCCCO)c4ccccc34)C(=O)NC2=O)c2ccccc21` .
Result: 1.022

Task: If you can, please state the reported CMS %inh value of `COc1cc(/C=N/Nc2ncnc3[nH]ncc23)ccc1O` .
Result: 3.056

Task: If you can, please state the reported CMS %inh value of `CCOc1ccc2c(-c3ccnc(Nc4cc(OC)cc(C(F)(F)F)c4)n3)cnn2n1` .
Result: 0.7407

Task: If you can, please state the reported CMS %inh value of `c1ccc(Cc2nc3ccc(Nc4ncnc5ccccc45)cc3[nH]2)cc1` .
Result: 0.8443

Task: If you can, please state the reported CMS %inh value of `Nc1ncnc2occ(-c3ccc(NC(=O)Nc4cccc(C(F)(F)F)c4)cc3)c12` .
Result: 11.5

Task: If you can, please state the reported CMS %inh value of `Fc1cccc(COc2ccc(Nc3ncnc4sc(-c5ccco5)cc34)cc2Cl)c1` .
Result: 0.3499

Task: If you can, please state the reported CMS %inh value of `CC(=O)CCCCn1c(=O)c2c(ncn2C)n(C)c1=O` .
Result: -0.2539

Task: If you can, please state the reported CMS %inh value of `Cn1c(=O)c(Sc2ccccc2F)cc2cnc(NC3CCOCC3)nc21` .
Result: -0.09142

Task: If you can, please state the reported CMS %inh value of C/C(O)=C(\C#N)C(=O)Nc1ccc(C(F)(F)F)cc1 [SJ000556684-2, TERIFLUNOMIDE] .
Result: 4.451

Task: If you can, please state the reported CMS %inh value of `Cc1cc(NS(=O)(=O)c2ccc(N)cc2)no1` .
Result: -0.6486

Task: If you can, please state the reported CMS %inh value of COc1ccc(C2=CC3=C(Br)C(=O)C(C)(O)C(=O)C3=CO2)cc1 (stereo not shown) .
Result: -0.7753

Task: If you can, please state the reported CMS %inh value of CC(=O)N(O)CCCCCNC(=O)CCC(=O)N(O)CCCCCNC(=O)CCC(=O)N(O)CCCCCN [SJ000285725-5, DEFEROXAMINE MESYLATE] .
Result: 49.53
